Test system: PRKCE
conditionDescription: concentration: 1 μM, replicates: in singlicate; n = 1;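 also: KINOMEscan kinase panel screen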
Please go through the items and note down their %Inh.
One number for each entry, in %.

Worked cases, answers included:
Cc1ccc(C(=O)Nc2ccc(Nc3ccnc4cc(-c5nccs5)ccc34)cc2O)cc1.Cl [GW494702]	16
Cl.Cl.NCC(NC(=O)c1cc(-c2ccccc2)c(-c2ccnc3[nH]ccc23)s1)c1ccccc1 (stereo not drawn) [GSK1321561]	69
CN1CCN(CCCNc2nccc(-c3c(-c4ccc(F)cc4)nn4cc(C(F)(F)F)ccc34)n2)CC1 [GW621581]	0
Oc1cc(Nc2ccnc3cc(I)ccc23)ccc1F [GW552771]	3
c1ccc(-c2cnc3nccnn23)cc1 [AH20685]	0
COc1ccc(Nc2nccc(NCCNC(=O)c3cc4ccccc4s3)n2)cc1 [GSK1379896]	2
CCc1ccc(-c2ccc3c(c2)-c2c(cnn2C)S(=O)(=O)N3C)cc1	17
O=c1[nH]cc(-c2ccc(N3CCOCC3)cc2)c2sc(-c3cn[nH]c3)cc12 [GSK2276055]	0

Name the recorded %Inh of the molecule listed here: O=C(Nc1ccccc1F)NC1CCN(c2ccnc(Nc3ccc(F)cc3)n2)CC1 [GSK1379800]
2

----------
System: NEK1
conditionDescription: concentration: 1 μM, replicates: in singlicate; n = 1
Please go through the items and note down their %Inh.
Give bare numbers, in %.

Worked cases, answers included:
Cn1cc(-c2[nH]c3cc(NC(=O)[C@H](N)C4CCCCC4)cc4c3c2C=NNC4=O)cn1	70
Cc1ccc(S(=O)(=O)Nc2ccc(Nc3nccc(Nc4cccc5[nH]ncc45)n3)cc2)cc1	0
CSc1cccc2c(-c3ccncn3)c(-c3ccc(F)cc3)nn12	0
CCn1c(-c2nonc2N)nc2c(C#CC(C)(C)O)ncc(OCCCCN)c21.O=C(O)C(F)(F)F.O=C(O)C(F)(F)F	0

Provide each entry's %Inh from the list below.
1. Nc1ncnc2c1nc(-c1ccccc1)n2-c1ccccc1
2. COc1cccc(C2=C(Nc3ccc(Cl)c(C(=O)O)c3)C(=O)NC2=O)c1
3. O=C(Nc1cccc(-c2nn3ccccc3c2-c2ccnc(Nc3cccc(C(F)(F)F)c3)n2)c1)c1c(F)cccc1F
4. COc1ccc(Nc2nccc(NCCNC(=O)c3cc4ccccc4s3)n2)cc1
5. CN1CCN(CCCNc2nccc(-c3c(-c4ccc(F)cc4)nn4cc(C(F)(F)F)ccc34)n2)CC1
6. O=C(Nc1n[nH]c2nc(-c3ccc(O)cc3)ccc12)C1CC1

1. 23
2. 0
3. 0
4. 0
5. 0
6. 0

----------
Test system: AURKC
conditionDescription: concentration: 1 μM, replicates: in singlicate; n = 1
Please go through the items and note down their %Inh.
One number for each entry, in %.

Worked cases, answers included:
Cl.NC(=O)c1cccc(Nc2nccc(Nc3ccc(Oc4c(Cl)cccc4Cl)c(Cl)c3)n2)c1	43
Cl.c1ccc(-c2ccc3c(Nc4ccc5[nH]ccc5c4)ccnc3c2)nc1	1
COc1cc2c(cc1OCCN1CCNCC1)ncc1c3ccc(C#N)cc3[nH]c21	9
COc1cccc(C(=O)Nc2cccc(Oc3ccc4nc(NC(=O)C5CC5)cn4n3)c2)c1	74

Provide each entry's %Inh from the list below.
1. Cc1ccc(C(=O)Nc2ccc(Nc3ccnc4cc(-c5nccs5)ccc34)cc2O)cc1.Cl
2. CC(=O)N1CCN(c2ccc(Nc3nccc(-c4sc(C(C)C)nc4-c4cccc(NS(=O)(=O)c5cccc(Cl)c5)c4)n3)cn2)CC1
3. COc1cc(Nc2nccc(N3CCC(NC(=O)Nc4cccc(C(C)=O)c4)C3)n2)cc(OC)c1OC (centres unmarked)
4. CNC(=O)c1ccccc1Nc1nc(Nc2ccc(N3CCOCC3)cc2)ncc1Cl.Cl

1: 61; 2: 10; 3: 77; 4: 100

----------
Test system: CDC2L2
conditionDescription: concentration: 1 μM, replicates: in singlicate; n = 1
Please go through the items and note down their %Inh.
Give bare numbers, in %.

Worked cases, answers included:
O=C(Nc1n[nH]c2cc(-c3ccoc3)ccc12)C1CC1 [SB-738481]	0
Cc1ccc(S(=O)(=O)Nc2ccc(Nc3nccc(Nc4cccc5[nH]ncc45)n3)cc2)cc1 [GSK581271]	0
Cl.c1ccc(-c2ccc3c(Nc4ccc5[nH]ccc5c4)ccnc3c2)nc1 [GW440138]	7
Cl.Cl.NCC(NCc1ccc(-c2ccnc3[nH]ccc23)s1)c1ccccc1 (centres unmarked) [GSK1321565]	23
CN(C)Cc1ccc(-c2ccc3c(Nc4ccc(Oc5ccccn5)cc4)ccnc3c2)o1 [GW567148]	0
COc1cc(Nc2nccc(N3CCC(NC(=O)Nc4cccc(C(C)=O)c4)C3)n2)cc(OC)c1OC (centres unmarked) [GSK1379753]	14
O=C(Nc1cccc(-c2nn3ccccc3c2-c2ccnc(Nc3cccc(F)c3)n2)c1)c1c(F)ccc(F)c1Cl [GSK357952]	0

Would you kindly look at the next entry?
Name the recorded %Inh of the compound listed here: Cn1cc(-c2[nH]c3cc(NC(=O)[C@H](N)C4CCCCC4)cc4c3c2C=NNC4=O)cn1
6

----------
Test system: HIPK3
conditionDescription: concentration: 1 μM, replicates: in singlicate; n = 1
attributeMeasured: %Inh (%)
Give bare numbers, in %.

Worked cases, answers included:
CC(C)(C)c1ccc2nccc(Nc3cccc(O)c3)c2c1	0
Nc1n[nH]c2cnc(-c3ccccc3)cc12	88
Cn1cc(-c2ccc3c(c2)CCN3C(=O)Cc2cccc(Cl)c2)c2c(N)ncnc21	13
Cl.NC(=O)c1cccc(Nc2nccc(Nc3ccc(Oc4c(Cl)cccc4Cl)c(Cl)c3)n2)c1	2
COc1cc2c(cc1OCCN1CCNCC1)ncc1c3ccc(C#N)cc3[nH]c21	91.9
FC(F)(F)c1ccc(/C=C/c2cncnc2Nc2ccc3[nH]c(Cc4ccccc4)nc3c2)cc1	0
COC(=O)Nc1nc2ccc(Oc3ccc(NC(=O)Nc4cc(C(F)(F)F)ccc4F)cc3)cc2n1C.Cl	0
COc1cc(Nc2ncc3c(C)nc(-c4cc5ccccc5[nH]4)n3n2)cc(OC)c1OC	0
Cn1cc(-c2ccc3c(c2)CCN3C(=O)Cc2cccc(F)c2)c2c(N)ncnc21	8
O=C(Nc1n[nH]c2nc(-c3ccc(O)cc3)ccc12)C1CC1	90.5

Provide each entry's %Inh from the list below.
1. Clc1ccc(-c2nn3ncccc3c2-c2ccnc(Nc3ccc4c(c3)OCCO4)n2)cc1
2. Cc1ccc(S(=O)(=O)Nc2ccc(Nc3nccc(Nc4cccc5[nH]ncc45)n3)cc2)cc1
3. O=C(Nc1cccc(-c2nn3ccccc3c2-c2ccnc(Nc3cccc(F)c3)n2)c1)c1c(F)ccc(F)c1Cl

1. 0
2. 1
3. 1

Provide each entry's %Inh from the list below.
1. C[C@@H](Oc1cc(-n2cnc3cc(-c4ccnc(NCCS(C)(=O)=O)c4)ccc32)sc1C(N)=O)c1ccccc1Cl
2. Cc1ccc(C(=O)Nc2ccc(Nc3ccnc4cc(-c5nccs5)ccc34)cc2O)cc1.Cl
3. c1ccc(-c2cnc3nccnn23)cc1

1: 7; 2: 1; 3: 0

Name the recorded %Inh of the compound listed here: Nc1ncc(-c2cccnc2)c2scc(-c3ccc4c(c3)CCN4C(=O)Cc3ccccc3)c12
35

----------
System: FLT1
conditionDescription: concentration: 1 μM, replicates: in singlicate; n = 1
Think of 40% as a floor: if %Inh stands on it or above, it is MET; beneath it, NOT MET.

Is the recorded value of %Inh equal to or greater than 40% for this molecule? COc1cc(Nc2nccc(N3CCC(NC(=O)c4cc5ccccc5s4)C3)n2)cc(OC)c1OC (stereo not shown) [GSK1379760]
NOT MET

Is the recorded value of %Inh equal to or greater than 40% for this molecule? Cc1occc1-c1ncc(OC[C@@H](N)Cc2c[nH]c3ccccc23)cc1-c1ccc2[nH]nc(C)c2c1.O=C(O)C(F)(F)F [GSK682037]
NOT MET

Is the recorded value of %Inh equal to or greater than 40% for this molecule? Fc1ccc(-c2ncn(C3CCNCC3)c2-c2ccnc(Oc3ccc(-c4ccccc4)cc3)n2)cc1 [SB-245391]
NOT MET

Is the recorded value of %Inh equal to or greater than 40% for this molecule? CN(c1ccc(NC(=O)Nc2cc(C(F)(F)F)ccc2F)cc1)c1ccnc(Nc2ccc(S(N)(=O)=O)cc2)n1 [GW809893]
MET

Is the recorded value of %Inh equal to or greater than 40% for this molecule? CCCCc1nn2ncccc2c1-c1ccnc(Nc2ccc(N3CCN(C)CC3)cc2)n1 [GW684941]
MET

Is the recorded value of %Inh equal to or greater than 40% for this molecule? O=c1[nH]cc(-c2ccc(N3CCOCC3)cc2)c2sc(-c3cn[nH]c3)cc12 [GSK2276055]
NOT MET

Is the recorded value of %Inh equal to or greater than 40% for this molecule? COc1cc(Nc2ncc3c(C)nc(-c4cc5ccccc5[nH]4)n3n2)cc(OC)c1OC [GW869516]
NOT MET

Is the recorded value of %Inh equal to or greater than 40% for this molecule? Nc1ncc(-c2ccc3nccc(-c4ccncc4)c3c2)cc1S(=O)(=O)N1CCOCC1 [GSK1627798]
NOT MET

Is the recorded value of %Inh equal to or greater than 40% for this molecule? Cl.Cl.NCC(NC(=O)c1cc(-c2ccccc2)c(-c2ccnc3[nH]ccc23)s1)c1ccccc1 (stereo not shown) [GSK1321561]
NOT MET

Is the recorded value of %Inh equal to or greater than 40% for this molecule? COc1ccc(Nc2nccc(N3CCC(NC(=O)Nc4cccc(OC)c4)C3)n2)cc1 (stereo not shown) [GSK1379742]
NOT MET

Is the recorded value of %Inh equal to or greater than 40% for this molecule? Cl.Cl.NCC(NCc1ccc(-c2ccnc3[nH]ccc23)s1)c1ccccc1 (stereo not shown) [GSK1321565]
NOT MET

Is the recorded value of %Inh equal to or greater than 40% for this molecule? Cc1ccc(S(=O)(=O)Nc2ccc(Nc3nccc(Nc4cccc5[nH]ncc45)n3)cc2)cc1 [GSK581271]
NOT MET

Is the recorded value of %Inh equal to or greater than 40% for this molecule? CN1CCN(Cc2cccc(-c3ccc4c(Nc5ccc(Oc6ccccc6)cc5)ccnc4c3)c2)CC1 [GW578342]
MET

Is the recorded value of %Inh equal to or greater than 40% for this molecule? Cn1cc(-c2ccc3c(c2)CCN3C(=O)Cc2cccc(Cl)c2)c2c(N)ncnc21 [GSK2606590]
MET

Is the recorded value of %Inh equal to or greater than 40% for this molecule? CN(C)Cc1ccc(-c2ccc3c(Nc4ccc(Oc5ccccn5)cc4)ccnc3c2)o1 [GW567148]
NOT MET

Is the recorded value of %Inh equal to or greater than 40% for this molecule? COc1cc(Nc2nccc(-c3c(-c4cccc(NC(=O)c5c(F)cccc5F)c4)nn4ncccc34)n2)cc(OC)c1OC [GSK327238]
MET
